Value source: the supplement of paper PMC4862054

Test system: CAL-85-1
Conditions: 72 h
Readings of EC50, CellTiter-Glo for the listed molecules
The response must be a number in nM with no trailing unit.

• CN(C)C[C@@H]1CCn2cc(c3ccccc32)C2=C(C(=O)NC2=O)c2cn(c3ccccc23)CCO1 = 3470
• COc1ccc(-c2ccc3c(N4CCOC[C@@H]4C)nc(N4CCOC[C@@H]4C)nc3n2)cc1CO = 31.8
• Cn1c(=O)n(-c2ccc(C(C)(C)C#N)cc2)c2c3cc(-c4cnc5ccccc5c4)ccc3ncc21 = 8.05
• CN(C)CCN1C(=O)c2cccc3cc(N)cc(c23)C1=O [Amonafide] = 9240
• CC[C@]1(O)C[C@H]2CN(CCc3c([nH]c4ccccc34)[C@@](C(=O)OC)(c3cc4c(cc3OC)N(C=O)[C@H]3[C@@](O)(C(=O)OC)[C@H](OC(C)=O)[C@]5(CC)C=CCN6CC[C@]43[C@@H]65)C2)C1 = 2.7
• CCCCCCCCc1ccc(CCC(N)(CO)CO)cc1 = 3340

Turning now to a further molecule:
Can you look up the measured EC50, CellTiter-Glo of CO[C@H]1C[C@@H]2CC[C@@H](C)[C@@](O)(O2)C(=O)C(=O)N2CCCC[C@H]2C(=O)O[C@H]([C@H](C)C[C@@H]2CC[C@@H](OCCO)[C@H](OC)C2)CC(=O)[C@H](C)/C=C(\C)[C@@H](O)[C@@H](OC)C(=O)[C@H](C)C[C@H](C)/C=C/C=C/C=C/1C for me?
0.22
